Biological target: Rho (Escherichia coli, UniProt P0AG30, P279S)
Construct: full-length WT rho in pET21b (pRS96; NdeI/XhoI), C-terminal His-tag kept, expressed in E. coli BL21(DE3) (I382N in BL21SI), Ni-NTA and heparin-Sepharose; homo-hexamer; 419 residues natural length
Sequence (P0AG30 whole entry P279S): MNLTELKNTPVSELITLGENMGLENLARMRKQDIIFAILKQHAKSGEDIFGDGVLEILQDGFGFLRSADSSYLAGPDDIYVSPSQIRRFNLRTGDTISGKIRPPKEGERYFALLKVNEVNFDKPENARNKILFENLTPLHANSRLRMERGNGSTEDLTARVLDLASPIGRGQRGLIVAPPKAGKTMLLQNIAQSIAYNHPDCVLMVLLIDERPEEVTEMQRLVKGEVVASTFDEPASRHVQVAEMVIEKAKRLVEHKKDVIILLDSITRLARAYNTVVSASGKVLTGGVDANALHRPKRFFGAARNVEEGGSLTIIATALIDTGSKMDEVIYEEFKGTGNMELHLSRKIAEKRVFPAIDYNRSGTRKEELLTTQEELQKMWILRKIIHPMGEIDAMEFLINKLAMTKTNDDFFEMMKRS
Experiment: UV cross-linking of [γ-32P]ATP, SDS-PAGE, hyperbolic fit
Conditions: read-out: Kd, app
Excerpt: UV cross-linking of [γ-32P]ATP, SDS-PAGE, hyperbolic fit on Rho
property_measured: pKd
Units for pKd: none; it is -log10 of a concentration expressed in mol/L.

Determine from records and report pKd for Nc1ncnc2c1ncn2[C@@H]1O[C@H](COP(=O)(O)OP(=O)(O)OP(=O)(O)O)[C@@H](O)[C@H]1O
5.37

* * *

Biological target: Rho (Escherichia coli, UniProt P0AG30, Y274D)
Construct: full-length WT rho in pET21b (pRS96; NdeI/XhoI), C-terminal His-tag kept, expressed in E. coli BL21(DE3) (I382N in BL21SI), Ni-NTA and heparin-Sepharose; homo-hexamer; 419 residues natural length
Sequence (P0AG30 whole entry Y274D): as the sequence (P0AG30 whole entry P279S) above, with Y274D, S279P counted along it
Assay: UV cross-linking of [γ-32P]ATP, SDS-PAGE, hyperbolic fit
Details: read-out: Kd, app
property_measured: Kd (µM)
Form entry: value (µM) — number only.

Using the record for Nc1ncnc2c1ncn2[C@@H]1O[C@H](COP(=O)(O)OP(=O)(O)OP(=O)(O)O)[C@@H](O)[C@H]1O , state its measured Kd.
3.15

* * *

Target: Rho (Escherichia coli, UniProt P0AG30, G324D)
Construct: full-length WT rho in pET21b (pRS96; NdeI/XhoI), C-terminal His-tag kept, expressed in E. coli BL21(DE3) (I382N in BL21SI), Ni-NTA and heparin-Sepharose; homo-hexamer; 419 residues natural length
Sequence (P0AG30 whole entry G324D): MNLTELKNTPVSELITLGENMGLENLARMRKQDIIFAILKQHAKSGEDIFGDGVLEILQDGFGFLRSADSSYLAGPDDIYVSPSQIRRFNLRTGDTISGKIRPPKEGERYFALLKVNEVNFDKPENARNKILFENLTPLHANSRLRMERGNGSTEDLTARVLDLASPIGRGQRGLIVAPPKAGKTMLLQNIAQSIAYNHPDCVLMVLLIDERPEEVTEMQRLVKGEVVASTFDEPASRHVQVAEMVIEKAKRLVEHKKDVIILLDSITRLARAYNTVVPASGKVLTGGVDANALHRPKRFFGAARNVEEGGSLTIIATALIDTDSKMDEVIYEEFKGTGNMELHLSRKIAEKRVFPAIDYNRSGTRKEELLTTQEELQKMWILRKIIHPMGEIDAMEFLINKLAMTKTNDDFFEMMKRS
Assay: UV cross-linking of [γ-32P]ATP, SDS-PAGE, hyperbolic fit
Settings: read-out: Kd, app
property_measured: pKd
Units for pKd: none; it is -log10 of a concentration expressed in mol/L.

Identify measured pKd corresponding to Nc1ncnc2c1ncn2[C@@H]1O[C@H](COP(=O)(O)OP(=O)(O)OP(=O)(O)O)[C@@H](O)[C@H]1O
5.61
